Test: Electrical activity assay on cell lines treated with a given drug. DMSO was used as a vehicle and a control, unblinded dofetilide was used as a control.
Assay type: ADME, cell-based
Design: unit not given here
Conditions: human, ipsc-cm, 0.001 µM; concentration (um) 0.001 uM
measured_property: FPDc
Respond with the number and no other words.

Look over these answered cases.
CN(CCOc1ccc(NS(C)(=O)=O)cc1)CCc1ccc(NS(C)(=O)=O)cc1 [DOFETILIDE] | 0.04061
CCCCCCCN(CC)CCCC(O)c1ccc(NS(C)(=O)=O)cc1 (centres undefined) [IBUTILIDE] | 0.01997
COc1ccc(CCN(C)CCCC(C#N)(c2ccc(OC)c(OC)c2)C(C)C)cc1OC (centres undefined) | 0.02679

We now examine a further compound.
Lab note: C[S+](C)[O-] [DIMETHYL SULFOXIDE] gave FPDc of 0.03393

----------
Test: Electrical activity assay on cell lines treated with a given drug. DMSO was used as a vehicle and a control, unblinded dofetilide was used as a control.
Conditions: human, ipsc-cm, 0.1 µM
Form field: APDc (one value per entry).

COc1ccccc1OCC(O)CN1CCN(CC(=O)Nc2c(C)cccc2C)CC1 (stereo unspecified) | 65.99

The reported value for COc1cc2c(Nc3ccc(Br)cc3F)ncnc2cc1OCC1CCN(C)CC1 in terms of APDc is 61.45

CC(C)N(CCC(C(N)=O)(c1ccccc1)c1ccccn1)C(C)C (stereo unspecified) [DISOPYRAMIDE] yielded APDc of 56.58

APDc recorded for this compound, CC(C)NCC(O)c1ccc(NS(C)(=O)=O)cc1 (stereo unspecified) , is 62.02

// recorded APDc for Cc1cccc(C)c1OCC(C)N (stereo unspecified) : 53

----------
Assay: Electrical activity assay on cell lines treated with a given drug. DMSO was used as a vehicle and a control, unblinded dofetilide was used as a control.
Format: ADME, cell-based
Set-up: unit not given here
Conditions: human, ipsc-cm, 0.1 µM; concentration (um) 0.1 uM
measured_property: FPDc
Lab note: record just the number, no unit beside it.

CC[C@H]1OC(=O)[C@H](C)[C@@H](O[C@H]2C[C@@](C)(OC)[C@@H](O)[C@H](C)O2)[C@H](C)[C@@H](O[C@@H]2O[C@H](C)C[C@H](N(C)C)[C@H]2O)[C@](C)(OC)C[C@@H](C)C(=O)[C@H](C)[C@@H](O)[C@]1(C)O | 0.03502

Now, please, on to the next molecule.
For record Cc1nc2n(c(=O)c1CCN1CCC(c3noc4cc(F)ccc34)CC1)CCCC2 the listed FPDc is 0.03663

----------
Test: Electrical activity assay on cell lines treated with a given drug. DMSO was used as a vehicle and a control, unblinded dofetilide was used as a control.
Format: ADME, cell-based
Design: unit not given here
Conditions: human, ipsc-cm, 1 µM; concentration (um) 1 uM
# Lookup of reported FPDc keyed by entry
Lab note: jot down the number only; don't add units.

Some compounds with recorded FPDc:
COc1ccccc1OCC(O)CN1CCN(CC(=O)Nc2c(C)cccc2C)CC1 (stereo unspecified) | 57.19
COc1ccc(CCN(C)CCCC(C#N)(c2ccc(OC)c(OC)c2)C(C)C)cc1OC (stereo unspecified) | 50.52
CC(C)N(CCC(C(N)=O)(c1ccccc1)c1ccccn1)C(C)C (stereo unspecified) [DISOPYRAMIDE] | 75.52

FPDc in this record for CC(C)NCC(O)c1ccc(NS(C)(=O)=O)cc1 (stereo unspecified) : 41.07

The compound identified as Cc1cccc(C)c1OCC(C)N (stereo unspecified) registered its FPDc at 54.07

Value of FPDc reported for the compound COc1cc2c(Nc3ccc(Br)cc3F)ncnc2cc1OCC1CCN(C)CC1 is 57.73

Data provenance: ChEMBL document CHEMBL4295262
